- system_name: Disintegrin and metalloproteinase domain-containing protein 17 (Homo sapiens)
- measurement_description: inhibition of ADAM17 peptide cleavage – biochemical, QFRET, primary screen (AID 720648);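 also: 0% = DMSO-only wells as the low control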
- applied_conditions: recombinant ADAM17, EDANS/DABCYL FRET peptide cleavage; at 6.95 µM; active compounds read high
The whole screen tested about 370,000 compounds, of which about 3,100 (0.84%) were called active. For the sample, actives were picked, then their nearest neighbours and some compounds at random.
Exercise: state measured inhibition for each of the compounds provided.
API: value field is a number in %; no unit string.

Query block: Give inhibition for COc1ccc(C(=O)C2CCCN(C(=O)c3cnsn3)C2)c(C)c1 (stereo not given) tested on Disintegrin and metalloproteinase domain-containing protein 17 (Homo sapiens).
Result block: -4.24

Query block: Write inhibition of CCOC(=O)C1CCN(C(=O)C(C)(C)NC(=O)Nc2ccccc2Cl)CC1 ; system used: Disintegrin and metalloproteinase domain-containing protein 17 (Homo sapiens)
Result block: -3.66

Query block: State, for Disintegrin and metalloproteinase domain-containing protein 17 (Homo sapiens), measured inhibition of the compound listed here: Cc1ccc(C2=CCN(C)C(=O)N2c2ccc(Cl)cc2)cc1
Result block: 0.02

Query block: Give the observed inhibition of O=C(C1CCCN1S(=O)(=O)c1ccccc1)N1CCc2ccccc2C1 (stereo not given) for Disintegrin and metalloproteinase domain-containing protein 17 (Homo sapiens).
Result block: 1.33

Query block: State the measured inhibition (Disintegrin and metalloproteinase domain-containing protein 17 (Homo sapiens)) of O=C(NC1CCCCN(Cc2ccc(Cl)cc2)C1=O)c1ccc(Br)cc1 (stereo not given)
Result block: 5.04
